Target: Calcium/calmodulin-dependent protein kinase kinase 2 (Homo sapiens)
Experiment: Inhibition of human CAMKK2 assessed as residual activity at 1 uM relative to control
reported-metric: Activity (%)

COc1ccc2c(c1)c(/C=C1\C(=O)Nc3ccc(S(N)(=O)=O)cc31)cn2C 19
CN(C)S(=O)(=O)c1ccc2c(c1)/C(=C/c1cn(C)c3ccc(O)cc13)C(=O)N2 25
Cn1cc(/C=C2\C(=O)Nc3ccc(S(N)(=O)=O)cc32)c2ccccc21 25
COc1ccc2[nH]cc(/C=C3\C(=O)Nc4ccc(S(N)(=O)=O)cc43)c2c1 31

(a) COc1ccc2c(c1)c(/C=C1\C(=O)Nc3ccc(S(=O)(=O)N(C)C)cc31)cn2C
(b) CNS(=O)(=O)c1ccc2c(c1)/C(=C/c1cn(C)c3ccc(OC)cc13)C(=O)N2
// compare measured Activity, left a , right b , return larger To answer, give the label that identifies your chosen option.
b
(b: 50%, a: 30%)

###

Species on record: Homo sapiens
Test: Inhibition of human PKA assessed as residual activity at 1 uM relative to control
reported-metric: Activity (%)

COc1ccc2c(c1)c(/C=C1\C(=O)Nc3ccc(S(N)(=O)=O)cc31)cn2C 91
COc1ccc2[nH]cc(/C=C3\C(=O)Nc4ccc(S(N)(=O)=O)cc43)c2c1 84
COc1ccc2c(c1)c(/C=C1\C(=O)Nc3ccc(S(=O)(=O)N(C)C)cc31)cn2C 98
CN(C)S(=O)(=O)c1ccc2c(c1)/C(=C/c1cn(C)c3ccc(O)cc13)C(=O)N2 103
CNS(=O)(=O)c1ccc2c(c1)/C(=C/c1cn(C)c3ccc(OC)cc13)C(=O)N2 83
Cn1cc(/C=C2\C(=O)Nc3ccc(S(N)(=O)=O)cc32)c2ccccc21 87

###

Target: Serine/threonine-protein kinase Nek6 (Homo sapiens)
Experiment: Inhibition of human NEK6 assessed as residual activity at 1 uM relative to control
reported-metric: Activity (%)

COc1ccc2c(c1)c(/C=C1\C(=O)Nc3ccc(S(=O)(=O)N(C)C)cc31)cn2C 100
Cn1cc(/C=C2\C(=O)Nc3ccc(S(N)(=O)=O)cc32)c2ccccc21 109
COc1ccc2[nH]cc(/C=C3\C(=O)Nc4ccc(S(N)(=O)=O)cc43)c2c1 108
CNS(=O)(=O)c1ccc2c(c1)/C(=C/c1cn(C)c3ccc(OC)cc13)C(=O)N2 97
CN(C)S(=O)(=O)c1ccc2c(c1)/C(=C/c1cn(C)c3ccc(O)cc13)C(=O)N2 103
COc1ccc2c(c1)c(/C=C1\C(=O)Nc3ccc(S(N)(=O)=O)cc31)cn2C 98

###

Target: BDNF/NT-3 growth factors receptor (Homo sapiens)
Sequence (Q16620 whole entry, the tested form may be a part): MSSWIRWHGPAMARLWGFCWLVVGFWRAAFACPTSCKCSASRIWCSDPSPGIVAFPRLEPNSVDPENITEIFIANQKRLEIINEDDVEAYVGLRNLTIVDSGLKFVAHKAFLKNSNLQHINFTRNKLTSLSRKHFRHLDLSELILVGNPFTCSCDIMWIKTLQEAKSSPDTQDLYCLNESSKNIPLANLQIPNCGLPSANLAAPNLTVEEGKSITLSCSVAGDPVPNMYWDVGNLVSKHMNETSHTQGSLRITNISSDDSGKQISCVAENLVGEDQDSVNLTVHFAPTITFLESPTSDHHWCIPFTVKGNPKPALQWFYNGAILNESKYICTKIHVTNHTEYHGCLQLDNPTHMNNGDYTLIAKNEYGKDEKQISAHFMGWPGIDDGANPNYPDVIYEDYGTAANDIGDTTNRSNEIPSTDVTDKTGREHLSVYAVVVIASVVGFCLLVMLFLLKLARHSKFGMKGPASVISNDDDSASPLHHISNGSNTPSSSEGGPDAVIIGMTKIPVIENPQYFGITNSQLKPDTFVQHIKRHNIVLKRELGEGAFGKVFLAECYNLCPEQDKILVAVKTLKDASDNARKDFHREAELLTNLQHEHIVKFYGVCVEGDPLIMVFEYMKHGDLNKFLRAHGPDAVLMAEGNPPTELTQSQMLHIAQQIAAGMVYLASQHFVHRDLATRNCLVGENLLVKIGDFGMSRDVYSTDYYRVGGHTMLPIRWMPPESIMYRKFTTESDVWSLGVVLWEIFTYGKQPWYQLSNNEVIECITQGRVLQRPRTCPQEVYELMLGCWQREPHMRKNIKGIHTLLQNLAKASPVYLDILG
Assay: Inhibition of GAL4 fused TrkB (unknown origin) expressed in MG87 cells transfected with pFA2-Elk plasmid and pFR-luciferase plasmid measured for 18 hrs by luciferase reporter gene assay
Format: cell-based
reported-metric: IC50 (nM)
All answers are understood in nM, so give the number only.

Fill in: IC50 of COc1ccc2c(c1)c(/C=C1\C(=O)Nc3ccc(S(=O)(=O)N(C)C)cc31)cn2C is ___
142

###

Target: Dual specificity tyrosine-phosphorylation-regulated kinase 1A (Homo sapiens)
Experiment: Inhibition of human DYRK1A assessed as residual activity at 1 uM relative to control
reported-metric: Activity (%)

Cn1cc(/C=C2\C(=O)Nc3ccc(S(N)(=O)=O)cc32)c2ccccc21 114
CNS(=O)(=O)c1ccc2c(c1)/C(=C/c1cn(C)c3ccc(OC)cc13)C(=O)N2 95
COc1ccc2c(c1)c(/C=C1\C(=O)Nc3ccc(S(=O)(=O)N(C)C)cc31)cn2C 94
COc1ccc2[nH]cc(/C=C3\C(=O)Nc4ccc(S(N)(=O)=O)cc43)c2c1 96
CN(C)S(=O)(=O)c1ccc2c(c1)/C(=C/c1cn(C)c3ccc(O)cc13)C(=O)N2 101
COc1ccc2c(c1)c(/C=C1\C(=O)Nc3ccc(S(N)(=O)=O)cc31)cn2C 99

###

Target: Serine/threonine-protein kinase TBK1 (Homo sapiens)
Sequence (whole entry): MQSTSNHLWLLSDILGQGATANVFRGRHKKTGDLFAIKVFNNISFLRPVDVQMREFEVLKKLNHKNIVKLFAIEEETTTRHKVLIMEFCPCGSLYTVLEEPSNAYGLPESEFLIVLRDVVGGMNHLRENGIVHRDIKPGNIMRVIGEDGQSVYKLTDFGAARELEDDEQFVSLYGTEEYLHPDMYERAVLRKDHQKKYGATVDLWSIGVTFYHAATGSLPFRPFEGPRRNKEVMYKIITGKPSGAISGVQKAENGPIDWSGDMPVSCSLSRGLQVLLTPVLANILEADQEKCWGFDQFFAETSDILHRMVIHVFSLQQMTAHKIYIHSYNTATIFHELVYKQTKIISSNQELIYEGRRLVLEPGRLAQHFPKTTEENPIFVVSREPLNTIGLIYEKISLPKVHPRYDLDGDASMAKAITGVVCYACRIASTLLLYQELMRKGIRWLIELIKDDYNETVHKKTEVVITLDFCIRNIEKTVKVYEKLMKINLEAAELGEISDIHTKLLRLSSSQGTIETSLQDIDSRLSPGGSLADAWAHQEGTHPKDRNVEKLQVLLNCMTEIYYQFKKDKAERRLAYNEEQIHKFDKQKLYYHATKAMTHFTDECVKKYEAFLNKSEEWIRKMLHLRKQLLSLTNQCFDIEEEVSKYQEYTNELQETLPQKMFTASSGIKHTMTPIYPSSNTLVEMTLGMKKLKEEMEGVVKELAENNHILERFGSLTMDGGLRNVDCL
Test: Inhibition of human TBK1 assessed as residual activity at 1 uM relative to control
reported-metric: Activity (%)

COc1ccc2[nH]cc(/C=C3\C(=O)Nc4ccc(S(N)(=O)=O)cc43)c2c1 62

(P) CNS(=O)(=O)c1ccc2c(c1)/C(=C/c1cn(C)c3ccc(OC)cc13)C(=O)N2
(Q) Cn1cc(/C=C2\C(=O)Nc3ccc(S(N)(=O)=O)cc32)c2ccccc21
// compare measured Activity, left P , right Q , return larger To answer, give the label that identifies your chosen option.
P
(P: 93%, Q: 58%)

###

Target: Serine/threonine-protein kinase N2 (Homo sapiens) (UniProt Q16513)
Sequence (Q16513 whole entry, looked up): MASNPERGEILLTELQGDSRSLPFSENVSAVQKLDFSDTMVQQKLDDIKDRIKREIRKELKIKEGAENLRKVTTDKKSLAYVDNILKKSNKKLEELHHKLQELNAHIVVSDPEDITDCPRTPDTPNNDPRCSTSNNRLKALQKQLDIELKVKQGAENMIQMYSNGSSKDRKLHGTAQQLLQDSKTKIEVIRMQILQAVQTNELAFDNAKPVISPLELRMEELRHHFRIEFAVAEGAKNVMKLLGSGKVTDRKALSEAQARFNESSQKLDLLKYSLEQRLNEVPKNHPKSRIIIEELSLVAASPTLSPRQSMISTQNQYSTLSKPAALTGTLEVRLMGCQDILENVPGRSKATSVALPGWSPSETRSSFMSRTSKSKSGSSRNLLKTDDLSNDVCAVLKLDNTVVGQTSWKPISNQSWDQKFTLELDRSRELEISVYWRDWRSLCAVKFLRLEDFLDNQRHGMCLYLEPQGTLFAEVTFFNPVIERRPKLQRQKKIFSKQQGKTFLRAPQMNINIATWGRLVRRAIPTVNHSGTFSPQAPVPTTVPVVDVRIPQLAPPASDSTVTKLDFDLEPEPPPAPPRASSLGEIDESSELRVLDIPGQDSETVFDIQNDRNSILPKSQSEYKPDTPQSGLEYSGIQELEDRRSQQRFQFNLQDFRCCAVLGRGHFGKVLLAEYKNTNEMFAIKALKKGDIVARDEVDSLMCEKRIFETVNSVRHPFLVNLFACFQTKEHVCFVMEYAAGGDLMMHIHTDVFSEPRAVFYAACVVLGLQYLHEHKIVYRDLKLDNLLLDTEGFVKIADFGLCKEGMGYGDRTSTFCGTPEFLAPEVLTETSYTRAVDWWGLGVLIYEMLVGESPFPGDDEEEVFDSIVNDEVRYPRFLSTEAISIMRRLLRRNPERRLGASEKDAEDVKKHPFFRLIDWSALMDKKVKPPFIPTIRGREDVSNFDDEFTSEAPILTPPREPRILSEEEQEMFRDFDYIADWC
Assay: Inhibition of human PRK2 assessed as residual activity at 0.1 uM relative to control
reported-metric: Activity (%)

COc1ccc2c(c1)c(/C=C1\C(=O)Nc3ccc(S(N)(=O)=O)cc31)cn2C 98
COc1ccc2[nH]cc(/C=C3\C(=O)Nc4ccc(S(N)(=O)=O)cc43)c2c1 96
COc1ccc2c(c1)c(/C=C1\C(=O)Nc3ccc(S(=O)(=O)N(C)C)cc31)cn2C 108
CNS(=O)(=O)c1ccc2c(c1)/C(=C/c1cn(C)c3ccc(OC)cc13)C(=O)N2 90
CN(C)S(=O)(=O)c1ccc2c(c1)/C(=C/c1cn(C)c3ccc(O)cc13)C(=O)N2 91
Cn1cc(/C=C2\C(=O)Nc3ccc(S(N)(=O)=O)cc32)c2ccccc21 94

###

Target: Ephrin type-A receptor 2 (Homo sapiens)
Experiment: Inhibition of human EPHA2 assessed as residual activity at 1 uM relative to control
reported-metric: Activity (%)

COc1ccc2c(c1)c(/C=C1\C(=O)Nc3ccc(S(=O)(=O)N(C)C)cc31)cn2C 89
Cn1cc(/C=C2\C(=O)Nc3ccc(S(N)(=O)=O)cc32)c2ccccc21 90
COc1ccc2[nH]cc(/C=C3\C(=O)Nc4ccc(S(N)(=O)=O)cc43)c2c1 98
COc1ccc2c(c1)c(/C=C1\C(=O)Nc3ccc(S(N)(=O)=O)cc31)cn2C 89
CNS(=O)(=O)c1ccc2c(c1)/C(=C/c1cn(C)c3ccc(OC)cc13)C(=O)N2 84
CN(C)S(=O)(=O)c1ccc2c(c1)/C(=C/c1cn(C)c3ccc(O)cc13)C(=O)N2 98

###

Molecular target: Tyrosine-protein kinase Lck (Homo sapiens) (UniProt P06239)
Sequence (P06239 2-509 limits assumed): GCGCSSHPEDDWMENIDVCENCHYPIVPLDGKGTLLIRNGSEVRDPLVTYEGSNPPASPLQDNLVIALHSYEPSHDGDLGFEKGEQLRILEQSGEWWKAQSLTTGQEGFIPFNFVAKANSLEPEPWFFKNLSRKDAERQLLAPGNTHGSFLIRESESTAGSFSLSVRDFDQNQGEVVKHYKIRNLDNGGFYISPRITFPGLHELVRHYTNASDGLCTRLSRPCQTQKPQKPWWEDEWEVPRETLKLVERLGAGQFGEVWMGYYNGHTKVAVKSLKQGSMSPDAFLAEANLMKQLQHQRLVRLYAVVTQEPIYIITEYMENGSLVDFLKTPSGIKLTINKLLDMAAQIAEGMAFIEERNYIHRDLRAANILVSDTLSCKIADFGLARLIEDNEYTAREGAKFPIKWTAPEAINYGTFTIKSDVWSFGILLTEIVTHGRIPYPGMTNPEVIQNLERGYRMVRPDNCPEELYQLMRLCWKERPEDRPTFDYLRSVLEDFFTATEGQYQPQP
Experiment: Inhibition of human LCK assessed as residual activity at 0.1 uM relative to control
reported-metric: Activity (%)

Illustrative cases are given below, each with its answer.
COc1ccc2[nH]cc(/C=C3\C(=O)Nc4ccc(S(N)(=O)=O)cc43)c2c1 72
Cn1cc(/C=C2\C(=O)Nc3ccc(S(N)(=O)=O)cc32)c2ccccc21 64
CN(C)S(=O)(=O)c1ccc2c(c1)/C(=C/c1cn(C)c3ccc(O)cc13)C(=O)N2 62

(a) COc1ccc2c(c1)c(/C=C1\C(=O)Nc3ccc(S(N)(=O)=O)cc31)cn2C
(b) CNS(=O)(=O)c1ccc2c(c1)/C(=C/c1cn(C)c3ccc(OC)cc13)C(=O)N2
// compare measured Activity, left a , right b , return larger To answer, give the label that identifies your chosen option.
a
(a: 65%, b: 45%)

###

Molecular target: 5'-AMP-activated protein kinase catalytic subunit alpha-1 (Homo sapiens) (UniProt Q13131)
Sequence (Q13131 whole entry, looked up, the tested form may be a part): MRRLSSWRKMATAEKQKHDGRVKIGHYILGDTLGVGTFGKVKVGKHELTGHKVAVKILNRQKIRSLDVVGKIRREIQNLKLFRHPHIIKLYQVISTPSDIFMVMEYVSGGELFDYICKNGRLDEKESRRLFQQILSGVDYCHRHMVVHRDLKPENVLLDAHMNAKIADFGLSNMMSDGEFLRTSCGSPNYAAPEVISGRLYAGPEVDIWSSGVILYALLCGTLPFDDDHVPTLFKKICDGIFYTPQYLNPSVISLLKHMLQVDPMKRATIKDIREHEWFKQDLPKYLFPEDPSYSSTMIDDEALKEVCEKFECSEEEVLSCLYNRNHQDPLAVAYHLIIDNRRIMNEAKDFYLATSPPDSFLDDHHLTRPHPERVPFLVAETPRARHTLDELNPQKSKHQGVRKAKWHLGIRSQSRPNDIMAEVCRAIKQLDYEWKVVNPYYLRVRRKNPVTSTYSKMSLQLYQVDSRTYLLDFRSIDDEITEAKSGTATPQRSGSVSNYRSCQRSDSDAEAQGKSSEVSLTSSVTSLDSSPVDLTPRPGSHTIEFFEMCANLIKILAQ
Experiment: Inhibition of human AMPKalpha1 (1 to 550 residues assessed as residual activity at 0.1 uM relative to control
reported-metric: Activity (%)

COc1ccc2c(c1)c(/C=C1\C(=O)Nc3ccc(S(N)(=O)=O)cc31)cn2C 94
CNS(=O)(=O)c1ccc2c(c1)/C(=C/c1cn(C)c3ccc(OC)cc13)C(=O)N2 104
CN(C)S(=O)(=O)c1ccc2c(c1)/C(=C/c1cn(C)c3ccc(O)cc13)C(=O)N2 103
COc1ccc2c(c1)c(/C=C1\C(=O)Nc3ccc(S(=O)(=O)N(C)C)cc31)cn2C 98
COc1ccc2[nH]cc(/C=C3\C(=O)Nc4ccc(S(N)(=O)=O)cc43)c2c1 101
Cn1cc(/C=C2\C(=O)Nc3ccc(S(N)(=O)=O)cc32)c2ccccc21 83
